Tested on: CCRIS mutagenicity, Ames/micronucleus/aberration tests
protocol.text: CCRIS mutagenicity studies
study.conditions: Test System: Ames Salmonella typhimurium; Strain/Indicator: TA100; Metabolic Activation: Rat, Liver, S9, Sodium phenobarbital and 5,6-benzoflavone (10%); Method: Preincubation
The source made the active and inactive calls. The rule behind the calls is not given here.

record.smiles | mutagenic call
CC(=O)[O-].CC(=O)[O-].O.O.O.O.[Co+2] | inactive; negative
Cc1cc(S(=O)(=O)O)c(N)cc1Cl | inactive; negative
CC(C)(C)c1ccc(C(=O)O)cc1 | inactive; negative
C=Cc1ccccn1 | inactive; negative

---

System: CCRIS mutagenicity, Ames/micronucleus/aberration tests
protocol.text: CCRIS mutagenicity studies
study.conditions: Test System: AMES SALMONELLA TYPHIMURIUM; Strain/Indicator: TA100; Metabolic Activation: RAT, LIVER, S-9, AROCLOR 1254; Method: STANDARD PLATE
Activity calls are given as the source filed them. How the calls were made is not given here.
Outcome codes: YES (active), NO (inactive)

compound | group.label
CC1(C)[C@@H]2CC[C@@]1(C)C(=O)C2=O | NO
CC(=O)N1CCC[C@H]1C(=O)N(CC(=O)O)N=O | YES
COc1cc2c(cc1O)CCN[C@]21CS[C@@H]2c3c(OC(C)=O)c(C)c4c(c3[C@H](COC1=O)N1[C@@H]2[C@H]2c3c(cc(C)c(OC)c3O)C[C@@H]([C@@H]1O)N2C)OCO4 | NO
Fc1cccc(F)n1 | NO
O=C1OC(O)C(C(Cl)Cl)=C1Cl (configuration not stated) | YES
O=C(NC(=O)c1c(F)cccc1F)Nc1cc(Cl)c(Oc2ncc(C(F)(F)F)cc2Cl)c(Cl)c1 | NO
O=CC(=O)c1ccccc1 | YES
Nc1n[nH]c(=S)s1 | NO
O=C(O)/C=C(/CC(=O)O)C(=O)O | NO
Cc1cc(S(=O)(=O)O)ccc1N | NO
CCCCOC(=O)CC(CC(=O)OCCCC)(OC(C)=O)C(=O)OCCCC | NO
Clc1nc2ccccc2nc1Cl | NO
Clc1cc(Cl)nc(Cl)n1 | NO
CCCCCCCCSCn1cc[n+](C)c1 | NO
Cc1ccc2nc3c4c(ccc3c(CO)c2c1)[C@H](O)[C@@H](O)C=C4 | YES
Clc1cccnc1 | NO
CC(C)CCCCCCOC(=O)CCCCC(=O)OCCCCCCC(C)C | NO
O=P1(N(CCCl)CCCl)NCCCO1 (configuration not stated) | YES
Nc1ccc(O)c2c1C(=O)c1ccccc1C2=O | NO
O=CN(O)c1cccc(Cl)c1 | NO
O=C(O)c1cc(O)c2c(c1)C(=O)c1cccc(O)c1C2=O | NO
CC1=CCC(=O)O1 | NO
C=C(C)C(=O)OCCCCCOC(=O)C(=C)C | NO
Nc1ccc(S(N)(=O)=O)cc1 | NO
O=C(/C=C/c1cccc([N+](=O)[O-])c1)c1ccccc1 | NO
Oc1cc2ccc3cccc4cc5c(c1-c1ccccc1-5)c2c34 | NO
COS(C)(=O)=O | NO
Cc1ncc([N+](=O)[O-])n1CC(=O)O | NO
C=O | YES
CCN(CC)C(=O)Nc1ccc(OCC(O)CNC(C)(C)C)c(C(C)=O)c1 (configuration not stated) | NO
c1ccc2c(c1)cc1ccc3cccc4ncc2c1c34 | YES
C=CCn1cc2c3c(cccc31)[C@H]1C=C(CO)CN(C)[C@@H]1C2 | YES
FC(F)C(F)(F)F | NO
CC(O)CN(C)c1ccc(NN)nn1 (configuration not stated) | NO
O=C1O[C@H]([C@@H](O)CO)C(O)=C1O | NO
CC1=C(/C=C/C(C)=C/C=C/C(C)=C/C=C/C=C(C)/C=C/C=C(C)/C=C/C2=C(C)C(=O)CCC2(C)C)C(C)(C)CCC1=O | NO
O=C/C=C/c1ccccc1 | NO
COC1=CC(=O)c2nc(C)c3c([nH]c4ccccc43)c2C1=O | NO
CC1(C)CC[C@]2(C(=O)O)CC[C@]3(C)C(=CC[C@@H]4[C@@]5(C)C[C@H](O)[C@H](O[C@@H]6O[C@H](CO)[C@@H](O)[C@H](O)[C@H]6O)C(C)(C(=O)O)C5CC[C@]43C)[C@H]2C1 (some centres not stated) | NO
O=c1[nH]cc2ccc3cccc4ccc1c2c34 | NO
COc1cc([N+](=O)[O-])c(O)c(C(C)(C)C)c1 | NO
Nc1ccc(N=Nc2ccccc2)cc1 | YES
Oc1cccc2cccnc12 | YES
COC(=O)c1ccccc1C(=O)OC | NO
C=CC(=O)N(CC1CO1)CC1CO1 (configuration not stated) | YES
Fc1c(F)c(F)c(Cl)c(F)c1F | NO
CCC[C@]1(O)CC[C@H]2[C@@H]3CC[C@H]4CC(=O)C[C@H](C)[C@]4(C)[C@H]3CC[C@@]21C | NO
O=NN1CSCC1C(=O)O (configuration not stated) | NO
O.[Al+3].[Al+3].[Na+].[Na+].[O-2].[O-2].[O-2].[O-2].[O-2].[O-2].[Si+4] | NO
O=C1c2ccccc2-c2cc([N+](=O)[O-])ccc21 | NO
Cc1ccc(N(O)C=O)cc1 | YES
Nc1ccccc1C(F)(F)F | NO
